The reported measurements were obtained from patent US20210324111A1.

Target: T1, Human serum albumin (human, UniProt P02768 25-609)
T1 construct: Bought purified protein, injected as the analyte in SPR; also called HSA; Human albumin, ChromPure (Jackson ImmunoResearch)
Experiment: SPR (Biacore), antibody captured on the chip, HSA as analyte, 25 C, 1:1 model
Listing of entries alongside the reported koff.
readout name: koff (s⁻¹)

>>> quantitative_result("645CDR-497FW Fab nh (Fab, V domains shown, also called 497FW/645CDR Fab nh; 645CDR -497FW/645CDR Fab nh) VH: EVQLVESGGGLVKPGGSLRLSCAASGIDLSNYAINWVRQAPGKGLEWVGIIWASGTTFYATWAKGRFTISRDDSKNTLYLQMNSLKTEDTAVYYCTTTVPGYSTAPYFDLWGQGTLVTVSS VL: AIQLTQSPSSLSASVGDRVTITCQSSPSVWSNFLSWYQQKPGKAPKLLIYEASKLTSGVPSRFSGSGSGTDFTLTISSLQPEDFATYYCGGGYSSISDTTFGQGTKVEIK")
0.000601
>>> quantitative_result("645CDR-2109FW Fab-A26 ds HL BYbe (bispecific antibody, part only; not given: A26 dsscFv, linker, CH1, CL, V domains shown, not shown: another chain or arm of the molecule; a dimerising Fc or GST; small tags and cut ends) VH: EVQLVESGGGLVKPGGSLRLSCAASGIDLSNYAINWVRQAPGKGLEWIGIIWASGTTFYATWAKGRFTISVDKAKNSAYLQMNSLRAEDTAVYYCTRTVPGYSTAPYFDLWGQGTLVTVSS VL: DIQMTQSPSSLSASVGDRVTITCQSSPSVWSNFLSWYQQKPGKVPKLLIYEASKLTSGVPSRFSGTGSGTDYTLTISSLQPEDVATYFCGGGYSSISDTTFGQGTKLEIK")
0.000651
>>> quantitative_result("645CDR-2109FW Fab nh (Fab, V domains shown, also called 2109FW/645CDR Fab nh; #3) VH: EVQLVESGGGLVKPGGSLRLSCAASGIDLSNYAINWVRQAPGKGLEWIGIIWASGTTFYATWAKGRFTISVDKAKNSAYLQMNSLRAEDTAVYYCTRTVPGYSTAPYFDLWGQGTLVTVSS VL: DIQMTQSPSSLSASVGDRVTITCQSSPSVWSNFLSWYQQKPGKVPKLLIYEASKLTSGVPSRFSGTGSGTDYTLTISSLQPEDVATYFCGGGYSSISDTTFGQGTKLEIK")
0.000227
